Test: Microsomal metabolic stability assay
Format: in vitro ADME
Conditions: pH 7.4; human liver microsomes, 0.5 mg/mL protein, 1 μM compound; read-out: Human LM Clint
Protocol: Microsomal Metabolic Stability Assay Microsomes were pre-incubated with test compound or control compounds for 5 min at 37° C. in 100 mM potassium phosphate buffer, pH 7.4, 1.0 mM EDTA. […] 50 μL of supernatant are taken into 96-well assay plates pre-added with 50 μL ultrapure water, and then analyzed by LC/MS/MS. Concentrations of test articles, control compounds in the samples were determined by using LC/MS/MS method. […]
measured property: microsomal CLint at 1 μM (µL/min/mg)

For orientation, consider the following solved cases.
1. CNC(=O)c1cnc(Nc2ccc(F)cn2)cc1Nc1cn(C)c2ccn(C)c(=O)c12 | 74
2. [2H]C([2H])([2H])NC(=O)c1cnc(Nc2ccc(F)cn2)cc1Nc1cn(CCOC)c2ccn(CC)c(=O)c12 | 26.8
3. [2H]C([2H])([2H])NC(=O)c1cnc(NC(=O)C2CC2)cc1Nc1cn(C)c2ncn(CC(F)(F)F)c(=O)c12 | 40
4. [2H]C([2H])([2H])NC(=O)c1cnc(NC(=O)C2CC2)cc1Nc1cn(C)c2ncn([C@H](C)C(F)(F)F)c(=O)c12 (single isomer, unassigned) [Example 234A] | 24.3
5. [2H]C([2H])([2H])NC(=O)c1cnc(Nc2ccn(C)n2)cc1Nc1cn(C)c2c(C)cn(CC)c(=O)c12 | 26.4

A: [2H]C([2H])([2H])NC(=O)c1cnc(Nc2ccn(C)n2)cc1Nc1ccc2cnn(CC)c2c1OC
B: CNC(=O)c1nnc(NC(=O)C2CC2)cc1Nc1cn(C)c2ccn(C)c(=O)c12
C: [2H]C([2H])([2H])NC(=O)c1cnc(NC(=O)C2CC2)cc1Nc1ccc2ncn(CC)c2c1OC
D: [2H]C([2H])([2H])NC(=O)c1cnc(Nc2ccn(C)n2)cc1Nc1ccc2cnn(C([2H])([2H])[2H])c2c1OC
### Prompt Hey, can you sort those compounds up there by microsomal CLint at 1 μM, smallest first? # list labels per requested ordering
### Response A, B, D, C

* * *

target: TYK2-JH2 domain (Homo sapiens, UniProt P29597); construct: IC50 on JH2 domain activity (nM); experiment: Binding activity test for JH2 domain of TYK2 (Tb-antibody/tracer FRET)
Sequence (P29597 589-875 limits assumed): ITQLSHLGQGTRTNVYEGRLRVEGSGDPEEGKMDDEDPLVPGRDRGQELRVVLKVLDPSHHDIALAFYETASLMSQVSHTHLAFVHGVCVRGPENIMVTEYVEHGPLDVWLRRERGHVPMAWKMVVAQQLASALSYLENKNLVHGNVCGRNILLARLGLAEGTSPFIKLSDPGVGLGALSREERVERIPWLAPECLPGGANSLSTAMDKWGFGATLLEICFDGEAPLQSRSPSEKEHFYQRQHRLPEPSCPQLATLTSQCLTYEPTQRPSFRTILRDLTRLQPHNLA
pIC50: −log10 of the molar value.
measured property: pIC50

I: [2H]C([2H])([2H])NC(=O)c1cnc(NC(=O)C2CC2)cc1Nc1cn(C2CC2)c2ncn(CC)c(=O)c12
II: [2H]C([2H])([2H])NC(=O)c1cnc(NC(=O)C2CC2)cc1Nc1ccn2ncc(CC#N)c2c1OC
III: [2H]C([2H])([2H])NC(=O)c1cnc(Nc2ccncn2)cc1Nc1cc(F)c2cnn(CC)c2c1OC
IV: [2H]C([2H])([2H])NC(=O)c1cnc(NC(=O)C2CC2)cc1Nc1ccn2ncc(CC(N)=O)c2c1OC
V: [2H]C([2H])([2H])NC(=O)c1cnc(Nc2ccn(C)n2)cc1Nc1ncc2cnn(CC)c2c1OC
### Prompt Order the records, beginning with the lowest pIC50 and ending with the highest. # list labels per requested ordering
### Response IV, V, I, III, II

I: [2H]C([2H])([2H])NC(=O)c1cnc(Nc2ccn(C)n2)cc1Nc1cc(F)c2cnn(CC)c2c1OC
II: [2H]C([2H])([2H])NC(=O)c1cnc(NC(=O)C2CC2)cc1Nc1nn(CCC)c2ccn(CC(F)(F)F)c(=O)c12
### Prompt Returns the identifier with the smallest measured pIC50 among I and II . Respond using the label that marks the chosen record.
### Response I
(I: 9.34, II: 9.61)

a: [2H]C([2H])([2H])NC(=O)c1cnc(NC(=O)C2CC2)cc1Nc1cn(C)c2ncn([C@H](C)C(F)(F)F)c(=O)c12 (single isomer, unassigned) [Example 234A]
b: [2H]C([2H])([2H])NC(=O)c1cnc(NC(=O)C2CC2)cc1Nc1cn(C)c2c(F)cn(CC(F)F)c(=O)c12
### Prompt Returns the identifier with the smallest measured pIC50 among a and b . Respond using the label that marks the chosen record.
### Response b

* * *

biological target: TYK2-JH2 domain (Homo sapiens); construct: IC50 on JH2 domain activity (nM); test: Binding activity test for JH2 domain of TYK2 (Tb-antibody/tracer FRET); details: ratio JAK1-JH2 IC50 / TYK2-JH2 IC50
measured property: JAK1/TYK2 selectivity

A: [2H]C([2H])([2H])NC(=O)c1cnc(NC(=O)C2CC2)cc1Nc1ncc2cnn(CC(F)(F)F)c2c1OC [Example 266]
B: [2H]C([2H])([2H])NC(=O)c1cnc(NC(=O)C2CC2)cc1Nc1ccn2ncc(C(C)C#N)c2c1OC (stereo not shown) [Example 251]
### Prompt Returns the identifier with the smallest measured JAK1/TYK2 selectivity among A and B . Respond using the label that marks the chosen record.
### Response B
(B: 18.32, A: 154)

a: CCn1ccc2c(c(Nc3cc(NC(=O)C4CC4)ncc3C(=O)NC)cn2C2CC2)c1=O [Example 245]
b: [2H]C([2H])([2H])NC(=O)c1cnc(NC(=O)C2CC2)cc1Nc1cn(C)c2ncn([C@H](C)C(F)(F)F)c(=O)c12 (single isomer, unassigned) [Example 234A]
### Prompt Returns the identifier with the smallest measured JAK1/TYK2 selectivity among a and b . Respond using the label that marks the chosen record.
### Response a
(a: 27.7, b: 46.7)

* * *

test: Microsomal metabolic stability assay; type: in vitro ADME; conditions: pH 7.4; human liver microsomes, 0.5 mg/mL protein, 1 μM compound; read-out: Human LM T½
measured property: half-life at 1 μM (min)

For orientation, consider the following solved cases.
1) CNC(=O)c1cnc(NC(=O)C2CC2)cc1Nc1cn(C)c2c(F)cn(C)c(=O)c12 | 58.8
2) [2H]C([2H])([2H])NC(=O)c1cnc(Nc2ccn(C)n2)cc1Nc1cc(F)c2cnn(CC)c2c1OC | 21.8

I: CNC(=O)c1cnc(NC(=O)C2CC2)cc1Nc1csc2c(Cl)cn(C)c(=O)c12
II: [2H]C([2H])([2H])NC(=O)c1cnc(Nc2ccc(F)cn2)cc1Nc1cn(CCOC)c2ccn(CC)c(=O)c12
III: [2H]C([2H])([2H])NC(=O)c1cnc(NC(=O)C2CC2)cc1Nc1cnn2ccn(CC(F)(F)F)c(=O)c12
IV: [2H]C([2H])([2H])NC(=O)c1cnc(NC(=O)C2CC2)cc1Nc1nn(CC)c2ccn(CC(F)(F)F)c(=O)c12
### Prompt Hey, can you sort those compounds up there by half-life at 1 μM, smallest first? # list labels per requested ordering
### Response III, II, I, IV

* * *

Assay: Microsomal metabolic stability assay
Assay type: in vitro ADME
Settings: pH 7.4; dog liver microsomes, 0.5 mg/mL protein, 1 μM compound; read-out: Dog LM Clint
Experimental: Microsomal Metabolic Stability Assay Microsomes were pre-incubated with test compound or control compounds for 5 min at 37° C. in 100 mM potassium phosphate buffer, pH 7.4, 1.0 mM EDTA. […] 50 μL of supernatant are taken into 96-well assay plates pre-added with 50 μL ultrapure water, and then analyzed by LC/MS/MS. Concentrations of test articles, control compounds in the samples were determined by using LC/MS/MS method. […]
measured property: microsomal CLint at 1 μM (µL/min/mg)

For orientation, consider the following solved cases.
1. CNC(=O)c1cnc2nc1Nc1cc(cc(-c3ncn(C)n3)c1OC)COCc1cccc(c1)N2 [Example 33] | 14.5
2. [2H]C([2H])([2H])NC(=O)c1cnc2cc1Nc1cc(cc(-c3ncn(C)n3)c1OC)COCc1nc(ccc1C)N2 [Example 70] | 30.4
3. [2H]C([2H])([2H])NC(=O)c1cnc(NC(=O)C2CC2)cc1Nc1ccc2cnn(CC(N)=O)c2c1OC [Example 259] | 9.24
4. [2H]C([2H])([2H])NC(=O)c1cnc(NC(=O)C2CC2)cc1Nc1cn(CC)c2ncn([C@H](C)C(F)(F)F)c(=O)c12 (single isomer, unassigned) [Example 254A] | 4.66
5. [2H]C([2H])([2H])NC(=O)c1cnc(NC(=O)C2CC2)cc1Nc1cc(F)c2cnn(CC)c2c1OC [Example 147] | 54.4

a: [2H]C([2H])([2H])NC(=O)c1cnc(Nc2ccc(F)cn2)cc1Nc1ccc2cnn(CC)c2c1OC [Example 42]
b: [2H]C([2H])([2H])NC(=O)c1cnc(Nc2cccc(C#N)n2)nc1Nc1cccc(-c2ncn(C)n2)c1OC [Example 21]
### Prompt Returns the identifier with the smallest measured microsomal CLint at 1 μM among a and b . Respond using the label that marks the chosen record.
### Response b

* * *

assay: Hepatocytes metabolic stability assay; format: in vitro ADME; details: cryopreserved hepatocytes, human hepatocytes, 1.0×10^6 cells/mL, read-out: Human hepatocyte stability T1/2
measured property: half-life at 1 μM (h)

For orientation, consider the following solved cases.
1) [2H]C([2H])([2H])NC(=O)c1cnc(NC(=O)C2CC2)cc1Nc1ccn2ncc(CC)c2c1OC | 2.61
2) [2H]C([2H])([2H])NC(=O)c1cnc(Nc2ccncn2)cc1Nc1cc(F)c2cnn(CC)c2c1OC | 2.12
3) [2H]C([2H])([2H])NC(=O)c1cnc(Nc2ccn(C)n2)cc1Nc1cc(F)c2cnn(CC)c2c1OC | 3.23
4) [2H]C([2H])([2H])NC(=O)c1cnc(NC(=O)C2CC2)cc1Nc1ccc2cnn(C([2H])([2H])C([2H])([2H])[2H])c2c1OC([2H])([2H])[2H] | 1.64
5) [2H]C([2H])([2H])NC(=O)c1cnc(NC(=O)C2CC2)cc1Nc1ncc2cnn(CC)c2c1OC | 1.59
6) [2H]C([2H])([2H])NC(=O)c1cnc(NC(=O)C2CC2)cc1Nc1nn(CC)c2ccn(CC(F)(F)F)c(=O)c12 | 3.38
7) [2H]C([2H])([2H])NC(=O)c1cnc(NC(=O)C2CC2)cc1Nc1ccc2cnn(CC)c2c1OC | 1.49
8) [2H]C([2H])([2H])NC(=O)c1cnc(NC(=O)C2CC2)cc1Nc1ccc2cnn(CC)c2c1OC([2H])([2H])[2H] | 1.55

P: [2H]C([2H])([2H])NC(=O)c1cnc(NC(=O)C2CC2)cc1Nc1ccn2ncc(C)c2c1OC
Q: [2H]C([2H])([2H])NC(=O)c1cnc(Nc2cnn(C3CC3)c2)nc1Nc1ccc2cnn(CC)c2c1OC([2H])([2H])[2H]
### Prompt Returns the identifier with the smallest measured half-life at 1 μM among P and Q . Respond using the label that marks the chosen record.
### Response Q
